# assay text: Liver microsomes stability, mouse

| compound | measure unit | value qualifier | Predicted hepatic CL |
| --- | --- | --- | --- |
| COc1ccc2c(c1)C(C[C@H]1CCCN1)CN2 (stereo partly drawn) [(R)-I-165] | mL/min/kg | = | 37.78 |
| COc1ccc2c(c1)C(C[C@H]1CCCN1C)CN2 (stereo partly drawn) [(R)-I-54] | mL/min/kg | = | 70.39 |
| COc1cccc2c1C(C[C@H]1CCCN1C)CN2 (stereo partly drawn) [(R)-I-94] | mL/min/kg | > | 84.35 |
| CN1CCC[C@@H]1C[C@H]1CNc2ccc(F)cc21 [(R),(R)-I-47] | mL/min/kg | = | 13.24 |

====

# assay text: Liver microsomes stability, rat
# test context: rat liver microsomes
Measured half-life at 2 μM accompanies every entry in the list below.

| compound | half-life at 2 μM / min |
| --- | --- |
| COc1cccc2c1C(C[C@H]1CCCN1C)CN2 (stereo partly drawn) [(R)-I-94] | 80.6 |
| CN1CCC[C@@H]1C[C@H]1CNc2ccc(F)cc21 [(R),(R)-I-47] | 9.82 |
| COc1ccc2c(c1)C(C[C@H]1CCCN1C)CN2 (stereo partly drawn) [(R)-I-54] | 5.5 |
| COc1ccc2c(c1)C(C[C@H]1CCCN1)CN2 (stereo partly drawn) [(R)-I-165] | 33.1 |

====

Measured Remaining Percentage accompanies every entry in the list below.
# assay text: Liver microsomes stability, human
# test context: human, With NADPH, 30 min

| compound | Remaining Percentage, % |
| --- | --- |
| COc1ccc2c(c1)C(C[C@H]1CCCN1)CN2 (stereo partly drawn) [(R)-I-165] | 111.72 |
| COc1cccc2c1C(C[C@H]1CCCN1C)CN2 (stereo partly drawn) [(R)-I-94] | 100.93 |
| CN1CCC[C@@H]1C[C@H]1CNc2ccc(F)cc21 [(R),(R)-I-47] | 108.74 |
| COc1ccc2c(c1)C(C[C@H]1CCCN1C)CN2 (stereo partly drawn) [(R)-I-54] | 66.49 |

====

# assay text: Liver microsomes stability, rat
# test context: rat liver microsomes
value type: CLint scaled at 2 μM (mL/min/kg)

| compound | experimental result |
| --- | --- |
| COc1ccc2c(c1)C(C[C@H]1CCCN1)CN2 (stereo partly drawn) [(R)-I-165] | 75.1 |
| COc1ccc2c(c1)C(C[C@H]1CCCN1C)CN2 (stereo partly drawn) [(R)-I-54] | 452 |
| CN1CCC[C@@H]1C[C@H]1CNc2ccc(F)cc21 [(R),(R)-I-47] | 253 |
| COc1cccc2c1C(C[C@H]1CCCN1C)CN2 (stereo partly drawn) [(R)-I-94] | 30.8 |

====

# assay text: Liver microsomes stability, rat
# test context: Without NADPH, 30 min

| compound | Remaining Percentage, % |
| --- | --- |
| COc1ccc2c(c1)C(C[C@H]1CCCN1C)CN2 (stereo partly drawn) [(R)-I-54] | 103.93 |
| COc1cccc2c1C(C[C@H]1CCCN1C)CN2 (stereo partly drawn) [(R)-I-94] | 104.88 |
| CN1CCC[C@@H]1C[C@H]1CNc2ccc(F)cc21 [(R),(R)-I-47] | 108.30 |
| COc1ccc2c(c1)C(C[C@H]1CCCN1)CN2 (stereo partly drawn) [(R)-I-165] | 106.00 |
